- Tested on: DLD1
- assay: TCF/Wnt firefly luciferase reporter signal relative to plate median (fraction of plate median); higher = higher Wnt reporter signal
- cond: 5 µM; treatment time 24 h; reporter: 7TFP
Label rule, in plain words: TCF/Wnt firefly luciferase reporter signal of 1 and up is YES, under 1 is NO.

Worked examples, 2 compounds total:
[[record]]
smiles_str = "COC(=O)N/N=C/c1c[n+]([O-])c2ccccc2[n+]1[O-]"
answer_label = "NO"

[[record]]
smiles_str = "COC(=O)CCCOc1ccc(Cl)cc1Cl"
answer_label = "YES"


Now consider the entry below.
Inquiry: TCF/Wnt firefly luciferase reporter signal >= 1 for O=C(O)c1cc(=O)c2cccc(O)c2[nH]1 ?
Reply text: YES

* * *

The entries below come with measured cell viability values attached.
- Test system: DLD1
- assay: cell viability (CellTiter-Glo) relative to plate median (fraction of plate median); higher = more viable cells
- cond: 5 µM; treatment time 24 h; reporter: 7TFP
Reply with just the number.

[[record]]
compound = "C[C@H]1[C@@H](O)O[C@@H]2O[C@@]3(C)CC[C@H]4[C@H](C)CC[C@@H]1[C@@]24OO3"
observation_type = "cell viability"
val = 1.05


Inquiry: Please give the measured cell viability for this compound: Cc1onc(-c2c(Cl)cccc2Cl)c1C(=O)N[C@@H]1C(=O)N2[C@@H]1SC(C)(C)[C@@H]2C(=O)O
Reply text: 0.935

Inquiry: Please give the measured cell viability for this compound: NCCCCNCCCN
Reply text: 0.936

Inquiry: Please give the measured cell viability for this compound: CC(C)=CCC[C@@H](C)[C@H]1CC[C@@]2(C)C3=C(CC[C@]12C)[C@@]1(C)CC[C@H](O)C(C)(C)[C@@H]1CC3
Reply text: 1

Inquiry: Please give the measured cell viability for this compound: C[C@H]1O[C@@H](O[C@H]2[C@@H](O)C[C@H](O[C@H]3[C@@H](O)C[C@H](O[C@H]4CC[C@@]5(C)[C@H](CC[C@@H]6[C@@H]5C[C@@H](O)[C@]5(C)[C@@H](C7=CC(=O)OC7)CC[C@]65O)C4)O[C@@H]3C)O[C@@H]2C)C[C@H](O)[C@@H]1O
Reply text: 0.838

Inquiry: Please give the measured cell viability for this compound: CN1CCCN=C1COC(=O)C(O)(c1ccccc1)C1CCCCC1 (configuration not stated)
Reply text: 1

Inquiry: Please give the measured cell viability for this compound: C=CCSSSCC=C
Reply text: 1.05

Inquiry: Please give the measured cell viability for this compound: C=C1CCC(C2CC(=O)OC2=O)C(=O)CCC2C1CC2(C)C (configuration not stated)
Reply text: 1.01

Inquiry: Please give the measured cell viability for this compound: C=CCSCC1Nc2cc(Cl)c(S(N)(=O)=O)cc2S(=O)(=O)N1 (configuration not stated)
Reply text: 1.07

Inquiry: Please give the measured cell viability for this compound: COc1ccc2c(c1)OC[C@@H](Cc1ccc(OC)c(OC)c1)[C@@H]2O
Reply text: 1.03

Inquiry: Please give the measured cell viability for this compound: C[C@@H]1NC(=O)[C@@H](N)CNC(=O)[C@H](C2CCNC(=N)N2)NC(=O)/C(=C/NC(N)=O)NC(=O)[C@H](CNC(=O)CC(N)CCCN)NC1=O.N=C1NCC[C@H]([C@@H]2NC(=O)/C(=C/NC(N)=O)NC(=O)[C@H](CNC(=O)C[C@@H](N)CCCN)NC(=O)[C@H](CO)NC(=O)[C@@H](N)CNC2=O)N1
Reply text: 1.03

Inquiry: Please give the measured cell viability for this compound: N#Cc1ccc2c(c1)N(CCCN1CCC(O)CC1)c1ccccc1S2
Reply text: 0.991

Inquiry: Please give the measured cell viability for this compound: Cc1cc(O)c(C=O)c(O)c1C(=O)O
Reply text: 0.939

Inquiry: Please give the measured cell viability for this compound: C[C@]12CC[C@@H]3c4ccc(O)cc4CC[C@H]3[C@@H]1CC[C@@H]2OC(=O)CCC1CCCC1
Reply text: 0.957

Inquiry: Please give the measured cell viability for this compound: CC(C(=O)O)c1ccc(N2Cc3ccccc3C2=O)cc1 (configuration not stated)
Reply text: 0.986

Inquiry: Please give the measured cell viability for this compound: CC(=O)C[C@@H]1C[C@H](O)c2c(O)cccc2C1=O
Reply text: 1.06

Inquiry: Please give the measured cell viability for this compound: COc1cccc2c1C(=O)c1c(O)c3c(c(O)c1C2=O)CC(O)(C(C)O)CC3OC1CC(NC=O)C(O)C(C)O1 (configuration not stated)
Reply text: 1.02

* * *

- System: SW480
- assay: cell viability (CellTiter-Glo) relative to plate median (fraction of plate median); higher = more viable cells
- cond: 5 µM; treatment time 24 h; reporter: 7TFP
observation.type: cell viability
Reply with just the number.

[[record]]
compound = "Cn1nnnc1SCC1=C(C(=O)O)N2C(=O)[C@@H](NC(=O)[C@H](OC=O)c3ccccc3)[C@H]2SC1"
val = 1.03

[[record]]
compound = "CC1/C(=N/O)C[C@@H]2C[C@H]1C2(C)C (stereo not given in full)"
val = 1.02

[[record]]
compound = "COC1(C)CCC2OC2(C)CCC2C1CC2(C)C (stereo not given)"
val = 1.08

[[record]]
compound = "CC[C@@H](C(=O)[C@@H](C)[C@@H](O)[C@H](C)CCc1ccc(C)c(O)c1C(=O)O)[C@H]1O[C@](CC)([C@H]2CC[C@](O)(CC)[C@H](C)O2)C[C@@H]1C"
val = 1.02

[[record]]
compound = "COC(=O)c1c(C)cc(OC(=O)c2c(C)cc(O)c(C=O)c2O)c(C)c1O"
val = 1.06


Inquiry: Please give the measured cell viability for this compound: CN(C)c1ccc2nc3ccc(=[N+](C)C)cc-3sc2c1
Reply text: 1.16

* * *

- Tested on: DLD1
- assay: cell viability (CellTiter-Glo) relative to plate median (fraction of plate median); higher = more viable cells
- cond: 5 µM; treatment time 24 h; reporter: 7TFP
The entries below come with measured cell viability values attached.
Reply with just the number.

[[record]]
compound = "C[n+]1c2cc(N)ccc2cc2ccc(N)cc21"
val = 1.05


Inquiry: Please give the measured cell viability for this compound: C[C@H](CCC(=O)O)[C@H]1CC[C@H]2[C@@H]3CC[C@@H]4C[C@H](O)CC[C@]4(C)[C@H]3CC[C@]12C
Reply text: 1.11

Inquiry: Please give the measured cell viability for this compound: COC(=O)[C@]1(C)CCC[C@]2(C)c3ccc(C(C)C)cc3C(=O)CC12 (some centres undefined)
Reply text: 1.1

Inquiry: Please give the measured cell viability for this compound: CCOC(=O)C1=C(C)NC(C)=C(C(=O)OC)C1c1cccc([N+](=O)[O-])c1 (centres undefined)
Reply text: 0.964

Inquiry: Please give the measured cell viability for this compound: O=C(O)c1cn(-c2ccc(F)cc2)c2cc(N3CCNCC3)c(F)cc2c1=O
Reply text: 0.906

Inquiry: Please give the measured cell viability for this compound: CO[C@@]1(NC(=O)C(C(=O)O)c2ccc(O)cc2)C(=O)N2C(C(=O)O)=C(CSc3nnnn3C)CO[C@@H]21 (some centres undefined)
Reply text: 1.06

Inquiry: Please give the measured cell viability for this compound: C[C@H]1CC2C3CCC4=CC(=O)C=C[C@]4(C)[C@@]3(F)[C@@H](O)C[C@]2(C)[C@@]1(O)C(=O)COP(=O)(O)O (some centres undefined)
Reply text: 0.93

Inquiry: Please give the measured cell viability for this compound: CC(=O)Oc1cccc(O)c1
Reply text: 1.01

Inquiry: Please give the measured cell viability for this compound: Cc1c(N(C)CS(=O)(=O)O)c(=O)n(-c2ccccc2)n1C
Reply text: 1.04

* * *

- Test system: DLD1
- assay: TCF/Wnt firefly luciferase reporter signal relative to plate median (fraction of plate median); higher = higher Wnt reporter signal
- cond: 10 µM; treatment time 24 h; reporter: 7TFP
observation.type: TCF/Wnt firefly luciferase reporter signal
Reply with just the number.

[[record]]
molecule = "CC(=O)Nc1cccc(-n2c(=O)n(C3CC3)c(=O)c3c(Nc4ccc(I)cc4F)n(C)c(=O)c(C)c32)c1"
val = 1.09


Inquiry: Please give the measured TCF/Wnt firefly luciferase reporter signal for this molecule: CC[C@@H]1C(=O)N(C)c2cnc(Nc3ccc(C(=O)N[C@H]4CC[C@H](N5CCN(CC6CC6)CC5)CC4)cc3OC)nc2N1C(C)C
Reply text: 1.68

Inquiry: Please give the measured TCF/Wnt firefly luciferase reporter signal for this molecule: COc1ncc(-c2ccc3nccc(-c4ccnnc4)c3c2)cc1NS(=O)(=O)c1ccc(F)cc1F
Reply text: 0.255

Inquiry: Please give the measured TCF/Wnt firefly luciferase reporter signal for this molecule: O=C(NC1CCNCC1)c1n[nH]cc1NC(=O)c1c(Cl)cccc1Cl
Reply text: 0.517

* * *

- Tested on: DLD1
- assay: cell viability (CellTiter-Glo) relative to plate median (fraction of plate median); higher = more viable cells
- cond: 5 µM; treatment time 24 h; reporter: 7TFP
The entries below come with measured cell viability values attached.
Reply with just the number.

Previously resolved entries follow.
[[record]]
compound = "C=C1C(=O)[C@]23[C@H](CC[C@@H]1[C@@H]2O)[C@]12CO[C@@]3(O)[C@H](O)[C@H]1C(C)(C)CC[C@@H]2O"
observation_type = "cell viability"
val = 0.931

[[record]]
compound = "CC(=O)c1ccc[nH]1"
observation_type = "cell viability"
val = 0.992

[[record]]
compound = "CN1CCN(CC/C=C2/c3ccccc3Sc3ccc(S(=O)(=O)N(C)C)cc32)CC1"
observation_type = "cell viability"
val = 1.07


Inquiry: Please give the measured cell viability for this compound: O=C1CN(/N=C/c2ccc([N+](=O)[O-])o2)C(=O)N1
Reply text: 1.03

Inquiry: Please give the measured cell viability for this compound: CC(C)C[C@@H]1NC(=O)[C@H](CCCN)NC(=O)[C@H](C(C)C)NC(=O)[C@H](Cc2ccc(O)cc2)N[C@@H](CCC(=O)O)C(=O)N[C@@H](CC(N)=O)C(=O)[C@@H](Cc2ccccc2)NC(=O)[C@H](Cc2ccccc2)NC(=O)[C@@H]2CCCN2C(=O)[C@@H](Cc2ccccc2)NC1=O
Reply text: 0.894

Inquiry: Please give the measured cell viability for this compound: COc1cc(NS(C)(=O)=O)ccc1Nc1c2ccccc2nc2ccccc12
Reply text: 1.11

Inquiry: Please give the measured cell viability for this compound: CN1CCC[C@@H]1CCO[C@](C)(c1ccccc1)c1ccc(Cl)cc1
Reply text: 0.982

Inquiry: Please give the measured cell viability for this compound: Nc1cc(N2CCCCC2)nc(N)[n+]1[O-]
Reply text: 1.01
